biological target: CD137 on Jurkat reporter cells (Promega kit CS196005) (UniProt Q07011); test: cell-based or functional assay
Sequence (Q07011 24-255 limits assumed): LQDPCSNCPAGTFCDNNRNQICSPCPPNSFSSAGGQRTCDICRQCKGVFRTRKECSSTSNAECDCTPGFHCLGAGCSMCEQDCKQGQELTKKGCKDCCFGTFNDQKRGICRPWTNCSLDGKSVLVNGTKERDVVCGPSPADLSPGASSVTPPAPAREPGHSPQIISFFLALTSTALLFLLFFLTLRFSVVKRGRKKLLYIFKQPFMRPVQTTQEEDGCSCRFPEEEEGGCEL
Starred links: 1 amine or outer side, 2 acyl side, 3 side chain; linkers in the order of their positions; H or OH if unused. Positions of bridges follow the written chain, without caps; N, C: chain ends. Non-standard residues stand in square brackets, D forms with d. Chains are numbered I, II in the order given. No end group written: not given here. *: point of attachment. TATA = O=C(CC[*:1])N1CN(C(=O)CC[*:2])CN(C(=O)CC[*:3])C1; Hyp = O=C(O)[C@@H]1C[C@@H](O)CN1; hArg = N=C(N)NCCCC[C@H](N)C(=O)O; tBuAla = CC(C)(C)C[C@H](N)C(=O)O; Cba = N[C@@H](CC1CCC1)C(=O)O; dK(PYA) = not defined here; Nle = CCCC[C@H](N)C(=O)O; Pent4ynoyl = C#CCCC(=O)*; Mpa = O=C(O)CCS
Measured EC50 (nM), PC3 co-culture values are reported for all entries that follow.
quantity.measured: EC50 (nM), PC3 co-culture

binder | u | test.value
BCY12979 (linker I:4-I:11-I:18, II:1-II:8-II:15 via TATA; not fully specified (bridges); reading uncertain; also: two CD137 bicycles per complex (EphA2:CD137 1:2)) peptide 1: A[hArg]DC[Hyp]LVNPLCLHP[dD]W[hArg]C peptide 2: Ac-C[tBuAla]PE[dK(PYA)]PYCFADPY[Nle]CA | nM | 0.08
BCY13138 (linker I:4-I:11-I:18, II:1-II:8-II:15 via TATA (inferred); not fully specified (N-terminus); reading uncertain; also: linker joins chain 1 to two chain 2 copies via PYA triazoles) peptide 1: A[hArg]DC[Hyp]LVNPLCLEP[dD]WTC peptide 2: [Mpa][tBuAla]PE[dK(PYA)]PYCFADPY[Nle]C | nM | 0.17
BCY13052 (linker I:4-I:11-I:18, II:1-II:8-II:15 via TATA (inferred); not fully specified (N-terminus); also: chain 2: linker at dLys(PYA)4 (place not given here by letters), linker N-(acid-PEG3)-N-bis(PEG3-azide) joins N-terminus of chain 1 to dLys(PYA) of chain 2) peptide 1: [dA][hArg]DC[Hyp][Cba]VNPLCLEP[dD]WTC[dA] peptide 2: Ac-C[tBuAla]PE[dK](Pent4ynoyl)PYCFADPY[Nle]CA | nM | 0.21
